# maps each entry to its melting point

Consider the following illustrative entries.
Fill blank: measured melting point of the compound `CC(C)C(=O)c1c(C(C)(C)C)cc(C=[N+]([O-])C(C)(C)C)cc1C(C)(C)C` is ____.
197 to 208 °C

Do the same for O=C(NC(NC(=S)Nc1cccnc1)C(Cl)(Cl)Cl)c1ccc(I)cc1 (centres undefined) please
197 to 199 °C

Then what about the compound `CCc1nn(-c2ccc3cc(-c4ccc([N+](=O)[O-])cc4)c(=O)oc3c2)nc1C` ?
278 to 279 °C

Continuing:
Given `c1coc(-c2ccc(-c3ccco3)cc2)c1` , state its recorded melting point.
149 to 150 °C

Another compound to check: `COCCC1(C(=O)N[C@@H](Cc2ccc(N3C(=O)c4cccc(C#N)c4C3=O)cc2)C(=O)OC)CCCC1`
122 to 126 °C

Try `COC(=O)C(=CN(C)C)C(=O)c1cc(F)c(Cl)cc1Cl` next.
107 to 109 °C

// same read-out, input: `Clc1ccc(-c2c(Cc3nc4ccccc4o3)cnn2-c2ccccc2)cc1`
137 to 139 °C

Moving on to the next compound: `COc1cc(-c2nc(NC(=O)c3c(C)c4cc(C)ccc4n3CC(=O)O)sc2CCC2CCCCC2)c(OC)cc1C`
150 to 152 °C

Same thing, different compound: `CS(=O)(=O)c1ccc(-c2sc(COc3ccccc3Cl)nc2-c2ccc(F)cc2)cc1`
189 to 191 °C

* * *

READOUT_LABEL: melting point

Past entries and their recorded results:
Look at this compound and give its reported melting point. `CC(C)(C(=O)N1CCc2ccccc2C1)c1ccc(S(=O)(=O)/C=C/C#N)cc1`
54 to 60 °C

Would you mind doing `CCc1ccccc1-c1nc2c3ccccc3ccn2c1N=Cc1ccc(C)cc1` as well?
158 to 160 °C

Now give it for CCN1CCN(C(=O)NC(C(=O)O)c2cc(OC(C)=O)c(OC(C)=O)cc2F)C(=O)C1=O (stereo not given) too.
177 to 179 °C

Continue with `CC(=O)Oc1ccccc1NC(=O)CBr`
79 to 82 °C

Check `CC#Cc1ccc(NC(=O)c2ccccc2NCc2ccncc2)cc1` too.
147 to 155 °C

Param item: `Cc1nc(SCC(=O)c2cc(-c3ccc(C(F)(F)F)cc3)oc2C)sc1CC(=O)O`
140 to 143 °C

Input CC(=O)C(Cc1cccc(Br)c1)NC(=O)c1ccc(C)cc1 (stereo not given)
106 to 107 °C

Do the same for C=C(C)[C@@H]1CC=C(OC(=O)C2CCC(C(=O)OC3=CC[C@@H](C(=C)C)CC3)CC2)CC1 (stereo not given in full) please
89 °C

Repeat with `Cn1c(=O)c(-c2ccc(Cl)cc2Cl)cc2c3cc(C=O)ccc3n(C)c21`
284 °C

Same question, `COc1ccc(CSc2nnc(-c3ccn4ncnc4c3)o2)cc1C#N` this time
247 to 248 °C

New cases:
Suppose we examine the compound `Cc1cc(=O)c2c(OCCOc3ccccc3)cccc2o1` ; what melting point value has been reported?
142 to 144 °C

Query `CCOC(=O)C(C)(C)n1c(=O)[nH]c2ccsc2c1=O` next
156 to 157 °C

* * *

READOUT_LABEL: melting point

# example entries with known answers
Please give the measured melting point for this compound: `Cc1cc(Cl)c2c(ccc3nc(C)[nH]c32)n1`
314 to 330 °C

Try the compound `COc1cccc(-c2c(Cl)cccc2Cl)c1OC`
49 to 50 °C

Next record, please: `CCC(=O)N1c2cscc2C(=O)N(C)c2ccccc21`
202 to 203 °C

// query: COc1ccc2c(c1O)CN(C)C(=O)C2c1cc(OC)c(OC)c(OC)c1 (single isomer, unassigned; (+))
193 to 196 °C

Please examine the following record next.
State the recorded melting point for this entry: `O=C(NCCCC[C@H](O)C(=O)O)OCc1ccccc1`
79 to 81 °C

* * *

Collected melting point values appear next to each entry.

Requested read-out: melting point. Entry: `FC(F)(F)c1cc(Br)c(C(F)(F)F)cc1Br`
64 to 65 °C

Further, for `CN1CCN(Cc2nnc(S)n2Cc2cccc(F)c2)CC1` ?
180 °C

CCOC(C)O[C@H]1C(=O)N[C@H]1C=Cc1ccccc1 (stereo partly specified) , same question.
98 to 99 °C

How about this compound: `COc1ccccc1-n1cnc2cc(N)ccc21`
48 to 50 °C

Please answer likewise for `O=c1nc(-c2ccc3c(c2)OCO3)c2cc3c(cc2[nH]1)OCO3`
> 300 °C

Please give the result for `COc1cccc2cc(C(=O)O)c(C(=O)O)cc12` too.
210 to 212 °C

* * *

// reported melting point for each item listed

Use these answered entries as a reference point.
What does the record list as melting point for CCCOC(=O)n1cc2c(n1)NC(CCC)=C(C(=O)OCC)C2c1ccccc1Cl (centres undefined) ?
59 °C

What do you get for `CON(CCCCn1c(C)nc2c(N)nc3ccccc3c21)C(N)=O` ?
158 to 160 °C

Next entry: CC1(c2ccccc2)C(=O)c2c(cc(O)c(Cl)c2Cl)C1c1ccccc1 (centres undefined)
238 to 244 °C

Next:
Returns the measured melting point for the input molecule. Input: `CCN(C)c1nsc(NC(=O)N(C)C)c1C#N`
115 to 130 °C

Then what about the molecule `CC(C)(O)C#Cc1ccc(C#N)cc1Cl` ?
63 to 65 °C

Now the same for COc1ccc(-c2c(Cl)c(CN3C(=O)CCC3=O)nc3sc4c(c23)CCC(C(=O)O)C4)cc1 (centres undefined)
258 to 259 °C

* * *

# reported melting point; entries follow

Example entries and their recorded answers appear below.
Any idea what its melting point is? The molecule is COC(=O)CC(O)CC(=O)C=Cc1ccc(Cl)cc1Cl (centres undefined)
77 to 79 °C

Same question, `Cc1nc2sccn2c(=O)c1CCN1CCC(=C2c3ccc(F)cc3CCn3ncnc32)CC1` this time
162 °C

Input `Cc1cccc(C)c1NC(=O)N=C1CCCN1C`
119 to 120 °C

---
Any idea what its melting point is? The molecule is `C[Si](C)(C)c1cc(C(=O)O)cc([Si](C)(C)C)c1`
> 300 °C

Continue with CN(C)C(=NS(=O)(=O)c1ccc(Cl)cc1)N1CC(c2ccccc2)C(c2ccc(Cl)cc2)=N1 (centres undefined)
182 °C

Ok, now `N#Cc1c(N2CCN(C(=O)c3cccs3)CC2)c2cc(Cl)cnc2n(Cc2cccc(F)c2)c1=O`
204 °C

O=C(Cc1ccccc1)N1CCC2(c3cccc(O)c3)CCCC2C1 (centres undefined) ?
135 to 137 °C

How about this molecule: `O=C1c2ccccc2C(=O)N1CCCc1cn(C(c2ccccc2)(c2ccccc2)c2ccccc2)cn1`
211 to 214 °C

Repeat with `CCOc1nc2cccc(C(=O)OC)c2n1Cc1ccc(-c2ccccc2-c2nc(=O)s[nH]2)cc1`
211 to 212 °C

* * *

Below: a set of entries, each annotated with reported melting point.

Examples with their reported melting point follow.
Would you mind telling me what melting point value was observed for `COc1nc(C)nc(NC(=O)NS(=O)(=O)c2c(C)cccc2OCCF)n1` ?
161 °C

Let us now turn to `CC(C)c1c(C=O)c(-c2ccc(F)cc2)nn1-c1ccccc1`
103 to 105 °C

Okay, and `CN1C(=O)CCc2cc(S(=O)(=O)Cl)ccc21` ?
130 °C

Record: `O=C(Nc1ccc(C(F)(F)F)cc1)Nc1nc(OCC(F)(F)F)cc(OCC(F)(F)F)n1`
167 to 168 °C

`CCOCOc1ccc(-c2ccc(C(F)(F)F)cc2)cc1Sc1cc(-c2ccc(C(F)(F)F)cc2)ccc1OCOCC` ?
61 to 62 °C

Do the same for `Cc1cccc2c1NS(=O)(=O)N(C(C)C)C2=O` please
124 °C

Further cases:
Consider the molecule `COCCOCn1c2ccccc2c2c(C)c(C(=O)OC)sc21` and give its measured melting point.
85.4 to 86 °C

Next molecule: `COC(=O)c1coc2cc(Oc3cc(COCc4ccccc4)ncn3)ccc12`
85 to 86 °C

And `CCCCCCCCCCCNC(=S)NCCCCCCCCCCC` ?
70 to 72 °C

# repeat for `CCCCOC(=O)c1c(CSc2nccn2C)nc2cc(OC)c(OC)cc2c1-c1ccc(OC)c(OC)c1`
131 to 132 °C

* * *

// values below are reported melting point

Any idea what melting point was measured for `CCOC(=O)c1c(Nc2ccc(F)cc2[N+](=O)[O-])sc2c1CCCC2` ?
140 to 142 °C

Again, but for O=C(OC1C2CN(Cc3ccccc3)CC1CN(C(=O)c1ccc([N+](=O)[O-])cc1)C2)c1ccccc1 (configuration not stated)
180 °C

Ok, now `Nc1ccc(-c2noc(-c3cnn4c(C(F)(F)F)cc(-c5cccc(C(F)(F)F)c5)nc34)n2)cn1`
264 °C

Further cases:
What value of melting point has been reported for the following molecule? `COc1ccc(C(=O)O)nc1OC1CCCC1`
96 to 99 °C

Consider next the molecule CC1(C)Oc2ccc(Cl)cc2C(NS(C)(=O)=O)C1O (configuration not stated) in the same way.
198 to 202 °C

# iterate: CCOC(=O)CN1C(=O)C(NC(=O)c2ccc3ccccc3c2)C(c2ccc(OC)cc2)Sc2ccccc21 (configuration not stated)
183 to 186 °C

Follow-up entry: O=C1Nc2ccc(F)c(F)c2C1c1ncnc2c1cnn2C1CCCC1 (configuration not stated)
> 300 °C

What do you get for `CCCCCCCc1cc(O)cc2c1C(=O)OC(C)(C)O2` ?
100 to 102 °C

Next record, please: CNC(=O)C1CCCN1S(=O)(=O)c1ccc(N2CCC(NC[C@H](O)COc3cccc4[nH]c(=O)[nH]c34)CC2)cc1 (some centres not stated)
36 to 39 °C
